biological target: CA-IX (Homo sapiens, UniProt Q16790); construct: His tag (C); purchased R&D Systems Inc. 2188-CA; host or cells: mouse myeloma cell line NS0; test: Binding affinity (Kd) determination for CA-IX inhibitors, DNSA fluorescence competition assay, Scatchard plots; conditions: Table 3
result.type: Kd (nM)

compound | Kd [nM]
NS(=O)(=O)c1nc2ccc(OCc3cn(CC(=O)N[C@H](CSCc4cccc(OCCn5cc(CCCF)nn5)c4)C(=O)O)nn3)cc2s1 | 10

[P] COC(=O)[C@H](C[S+]([O-])Cc1cccc(OCCF)c1)NC(=O)Cn1cc(COc2ccc3sc(S(N)(=O)=O)nc3c2)nn1 (stereo partly drawn)
[Q] NS(=O)(=O)c1nc2ccc(OCc3cn(CC(=O)NC(COCc4cccc(OCCNC(=O)CCC(=O)O)c4)C(=O)O)nn3)cc2s1 (stereo not drawn)
Ask: Form field 'greater Kd' accepts P or Q ; which applies? Let me know the label of the one you choose.
Result: Q
(Q: 25 nM, P: 10 nM)

* * *

molecular target: CA-IX (Homo sapiens, UniProt Q16790); construct: His tag (C); purchased R&D Systems Inc. 2188-CA; host or cells: mouse myeloma cell line NS0; test: CA-IX combinatorial library screening, competitive fluorescence-based assay with dansylamide (DNSA); assay type: binding; conditions: Table 1, Libraries 1-3; sample concentrations 100 nM and 1000 nM, DNSA 200 μM; screening at 1 μM
result.type: In Vitro Binding Assay (Library Screening)

compound | result
NS(=O)(=O)c1ccc(-c2cn(Cn3nnc4ccccc43)nn2)cc1 [DHK29] | √
NS(=O)(=O)c1ccc(-c2cn(Cn3c(=S)sc4ccccc43)nn2)cc1 [DHK19] | √
NS(=O)(=O)c1nc2ccc(OCc3cn(Cn4nnc5ccccc54)nn3)cc2s1 [DHK128] | √

* * *

target: CA-IX (Homo sapiens, UniProt Q16790); construct: His tag (C); purchased R&D Systems Inc. 2188-CA; host or cells: mouse myeloma cell line NS0; test: Binding affinity (Kd) determination for CA-IX inhibitors, DNSA fluorescence competition assay, Scatchard plots; conditions: Table 3
result.type: Kd (nM)

A selection of reference data follows.
molecule | result.type | unit.symbol | number
NS(=O)(=O)c1nc2ccc(OCc3cn([C@@H](Cc4ccc(OCCF)cc4)C(=O)NC(Cc4cccc(C(F)(F)F)c4)C(=O)O)nn3)cc2s1 (stereo partly drawn) [DHK2-181] | Kd | nM | 2
C[N+](C)(C)C[C@H](O)CC(=O)NCCCC[C@@H](C(=O)NCc1ccc(C(F)(F)F)cc1)n1cc(COc2ccc3nc(S(N)(=O)=O)sc3c2)nn1 [DHK2-147] | Kd | nM | 11
COC(=O)[C@H](Cc1ccc(C(F)(F)F)cc1)NC(=O)[C@H](Cc1ccc(OCCF)cc1)n1cc(COc2ccc3nc(S(N)(=O)=O)sc3c2)nn1 [DHK2-127] | Kd | nM | 2
NS(=O)(=O)c1nc2ccc(OCc3cn([C@@H](Cc4ccccc4)C(=O)N4CCC(C(=O)O)CC4)nn3)cc2s1 [DHK2-94] | Kd | nM | 10
CC(C)[C@H](C(=O)NCc1ccco1)n1cc(-c2ccc(S(N)(=O)=O)cc2)nn1 (stereo in doubt) [DHK25] | Kd | nM | 5
CC(C)[C@@H](C(=O)N[C@@H](Cc1ccc(OCCF)cc1)C(=O)O)n1cc(COc2ccc3nc(S(N)(=O)=O)sc3c2)nn1 [VM4037a] | Kd | nM | 1.3
CC(C)C(C(=O)NCc1cc(F)ccc1F)n1cc(COc2ccc3nc(S(N)(=O)=O)sc3c2)nn1 (stereo not drawn) [DHK117] | Kd | nM | 14.1
CC(C)[C@@H](C(=O)N[C@H](Cc1ccc(C(F)(F)F)cc1)C(=O)O)n1cc(COc2ccc3nc(S(N)(=O)=O)sc3c2)nn1 [DHK2-160-F1] | Kd | nM | 10

[A] CC(C)C(C(=O)N[C@@H](Cc1ccc(OC(CO)CF)cc1)C(=O)O)n1cc(COc2ccc3nc(S(N)(=O)=O)sc3c2)nn1 (single isomer, unassigned) [GGC121B]
[B] NS(=O)(=O)c1nc2cc(OCc3cn(CC(=O)N[C@@H](CSCc4cccc(OCCF)c4)C(=O)O)nn3)ccc2s1 [VM2-41]
[C] COC(=O)[C@H](Cc1ccc(C(F)(F)F)cc1)NC(=O)[C@H](C(C)C)n1cc(COc2ccc3nc(S(N)(=O)=O)sc3c2)nn1 [BW-96]
[D] N[C@@H](CO)C(=O)NCCCC[C@@H](C(=O)NCc1ccc(C(F)(F)F)cc1)n1cc(COc2ccc3nc(S(N)(=O)=O)sc3c2)nn1 [DHK2-157]
Ask: Which order do these items take when sorted by rising Kd? List them. Use the labels to give the requested order.
Result: C, B, A, D
(C: 1.7 nM, B: 5 nM, A: 13 nM, D: 25 nM)
